# assay-summary: Pharmacokinetic study in rats (Test Example 4), intragastric administration
# Assay type: in vivo
# condition-parameters: Sprague-Dawley, rat, plasma; SD rats, female; Tolvaptan PO 9 mg/kg; molecule detected Tolvaptan; mean value
assay-readout: Tmax (h)

[[record]]
compound = "Cc1ccccc1C(=O)Nc1ccc(C(=O)N2CCCC(O)c3cc(Cl)ccc32)c(C)c1 (stereo not shown) [Tolvaptan, reference compound]"
assay_readout = "Tmax"
recorded_result = 2


----------
# assay-summary: Pharmacokinetic study in rats (Test Example 4), intragastric administration
# Assay type: in vivo
# condition-parameters: Sprague-Dawley, rat, plasma; SD rats, female; Tolvaptan PO 9 mg/kg; molecule detected Tolvaptan; mean value
assay-readout: half-life (h)

[[record]]
molecule = "Cc1ccccc1C(=O)Nc1ccc(C(=O)N2CCCC(O)c3cc(Cl)ccc32)c(C)c1 (stereo not shown) [Tolvaptan, reference compound]"
units_label = "h"
recorded_result = 2.64


----------
# measurement-target: UniProt P30518
# Sequence (P30518 whole entry): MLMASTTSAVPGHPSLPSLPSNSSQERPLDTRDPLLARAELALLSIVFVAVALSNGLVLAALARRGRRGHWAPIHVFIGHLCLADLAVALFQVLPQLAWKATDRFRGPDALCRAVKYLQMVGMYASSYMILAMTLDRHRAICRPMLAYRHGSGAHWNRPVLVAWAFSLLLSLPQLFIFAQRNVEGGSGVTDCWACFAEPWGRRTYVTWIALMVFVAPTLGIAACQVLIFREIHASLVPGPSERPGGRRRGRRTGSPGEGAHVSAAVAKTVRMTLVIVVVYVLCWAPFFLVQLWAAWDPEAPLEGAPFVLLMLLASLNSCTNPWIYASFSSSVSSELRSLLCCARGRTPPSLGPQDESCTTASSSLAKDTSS
# assay-summary: Arginine vasopressin receptor 2 (AVPR2) receptor cAMP assay in Flpin-CHO-AVPR2 cells
# condition-parameters: arginine vasopressin stimulation
assay-readout: IC50 (nM)

[[record]]
molecule = "Cc1ccccc1C(=O)Nc1ccc(C(=O)N2CCCC(OCOP(=O)(O)OCC[N+](C)(C)C)c3cc(Cl)ccc32)c(C)c1 (stereo not shown)"
measurement_target = "UniProt P30518"
units_label = "nM"
recorded_result = 8


----------
# assay-summary: Pharmacokinetic study in dogs (Test Example 1), intragastric administration
# Type: in vivo
# condition-parameters: beagle, dog, plasma; beagles; Tolvaptan administered PO 1 mg/kg; molecule detected Tolvaptan; mean value
assay-readout: half-life

[[record]]
molecule = "Cc1ccccc1C(=O)Nc1ccc(C(=O)N2CCCC(O)c3cc(Cl)ccc32)c(C)c1 (stereo not shown) [Tolvaptan, reference compound]"
recorded_result = "1.94 h"


----------
# assay-summary: Pharmacokinetic study in dogs (Test Example 1), intragastric administration
# Format: in vivo
# condition-parameters: beagle, dog, plasma; beagles; Tolvaptan administered PO 1 mg/kg; molecule detected Tolvaptan; mean value
assay-readout: Cmax

[[record]]
compound = "Cc1ccccc1C(=O)Nc1ccc(C(=O)N2CCCC(O)c3cc(Cl)ccc32)c(C)c1 (stereo not shown) [Tolvaptan, reference compound]"
recorded_result = "7.08 ng/mL"


----------
# assay-summary: Pharmacokinetic study in rats (Test Example 4), intragastric administration
# Type: in vivo
# condition-parameters: Sprague-Dawley, rat, plasma; SD rats, male; Tolvaptan PO 9 mg/kg; molecule detected Tolvaptan; mean value
assay-readout: Tmax (h)

[[record]]
compound = "Cc1ccccc1C(=O)Nc1ccc(C(=O)N2CCCC(O)c3cc(Cl)ccc32)c(C)c1 (stereo not shown) [Tolvaptan, reference compound]"
assay_readout = "Tmax"
recorded_result = 1.67


----------
# assay-summary: Pharmacokinetic study in rats (Test Example 4), intragastric administration
# Type: in vivo
# condition-parameters: Sprague-Dawley, rat, plasma; SD rats, male; Compound 5 PO 12.9 mg/kg; molecule detected Compound 5; mean value
assay-readout: half-life (h)

[[record]]
compound = "Cc1ccccc1C(=O)Nc1ccc(C(=O)N2CCCC(OCOP(=O)(O)OCC[N+](C)(C)C)c3cc(Cl)ccc32)c(C)c1 (stereo not shown) [Compound 5]"
assay_readout = "half-life"
units_label = "h"
recorded_result = 1.55


----------
# assay-summary: Pharmacokinetic study in rats (Test Example 4), intragastric administration
# Format: in vivo
# condition-parameters: Sprague-Dawley, rat, plasma; SD rats, female; Tolvaptan PO 9 mg/kg; molecule detected Tolvaptan; mean value
assay-readout: AUC(0-t) (ng·h/mL)

[[record]]
compound = "Cc1ccccc1C(=O)Nc1ccc(C(=O)N2CCCC(O)c3cc(Cl)ccc32)c(C)c1 (stereo not shown) [Tolvaptan, reference compound]"
assay_readout = "AUC(0-t)"
recorded_result = 1820


Values compiled from patent US12662497B2.
